Test system: Staphylococcus aureus
experimentDescription: Antimicrobial activity against methicillin-susceptible Staphylococcus aureus ATCC29213 measured after 24 hrs by CLSI protocol based microdilution method
Type: functional
quantityName: MIC

INSERT INTO results (compound, observedresult) VALUES
  ('Cn1c(C2CC(=O)N(c3ccc4ccccc4c3)C2)nc2ccccc21 (stereo unspecified)', '> 32 µg/mL');

For every record below, what is its MIC?
1. COc1ccc(N2CC(c3nc4ccccc4n3C)CC2=O)cc1Br (stereo unspecified)
2. Cc1cccc(N2CC(c3nc4ccccc4n3C)CC2=O)c1C (stereo unspecified)
3. Cn1c(C2CC(=O)N(c3cccc(Br)c3OCC(F)(F)F)C2)nc2ccccc21 (stereo unspecified)
4. Cn1c(C(=O)NCc2ccccc2)nc2ccccc21
5. Cn1c(C2CC(=O)N(c3ccc4ncsc4c3)C2)nc2ccccc21 (stereo unspecified)

Reply |
["> 32 µg/mL", "8 µg/mL", "> 32 µg/mL", "> 32 µg/mL", "> 32 µg/mL"]
